# EXPERIMENT: Human HepG2 cell viability assay in 384 well format
# Type: toxicity, cell-based
# Set-up: dose 125 nL, time 70.5 hour; concentration not given beside the values
# CONDITION_NOTES: HepG2 cells, read-out: Inhibition
Here, each record is paired with measured cytotoxicity at 70.5 h data.

COMPOUND	UNIT_SYMBOL	cytotoxicity at 70.5 h
CCc1cc(CN(C)C(=O)c2cc(=O)[nH]c(=O)[nH]2)on1	%	-9.27
CN(C)C(=O)c1cccc(C[S+]([O-])CC(=O)NC2CCCC2)c1 (stereo not given)	%	5.53
CC(C)c1ncc(Cl)c(C(=O)N2CCN(C3CCCC3)CC2)n1	%	-3.22
O=C(Cc1ccc2c(c1)CCC2)N1CCN(c2cnccn2)CC1	%	2.45
Cc1cnccc1CN(C)Cc1c[nH]nc1-c1ccc(F)cc1F	%	3.5
CC(Cn1ccnc1)NC(=O)Cc1ccc2c(c1)OCCO2 (stereo not given)	%	-0.766
CCc1n[nH]c(C2CN(Cc3ncc(CC)o3)CCO2)n1 (stereo not given)	%	51.9
CCS(=O)(=O)N1CCC(c2nccn2Cc2ccncc2)CC1	%	-1.9
Cc1cc(F)cc2c(N3CCC(S(N)(=O)=O)CC3)c(C#N)cnc12	%	-4.86
N#Cc1cccc(NC2CC(=O)N(CCc3ccc(F)cc3)C2)n1 (stereo not given)	%	28.1
Cc1nc(C)n(C2CCCN(C(=O)CCc3cscn3)C2)n1 (stereo not given)	%	37
Cc1cc(C(=O)Nc2ccc(OC3CCOCC3)c(C)c2)[nH]n1	%	-17.3
Cc1ccc([C@H]2CN(C(=O)C3CCC3)C[C@@H]2N)o1	%	-1.49
CN(CCN1CCOCC1)C(=O)CCCc1ccccc1	%	-2.26
CN(C(=O)C1CCN(Cc2cnc3ccccn23)CC1)c1ccccc1	%	-7.69
